Just for reference, paper PMC6407576 is where these values come from.

targetUnderTest: thrombin (Homo sapiens, UniProt P00734)
methodSummary: In vitro antiprotease activity
Format: biochemical
assayConditions: 15 min preincubation; read-out: mean IC50 against Thrombin (converted)
// returns Not satisfied unless IC50 is strictly below 50 µM, in which case Satisfied

| compound | label |
| --- | --- |
| COc1cc(-n2c(C)nc3ccc(Cl)cc3c2=O)cc(OC)c1OC | Satisfied |
| Cc1nc2ccccc2c(=O)n1/N=C/c1ccc(-c2ccccn2)cc1 | Not satisfied |
| Cc1cccc(NC(=O)CSc2nc3ccccc3c(=O)n2-c2ccccc2)c1C [Compound 15e] | Not satisfied |
| Cc1nc2ccccc2c(=O)n1/N=C/c1ccc(-c2ccccc2)cc1 | Not satisfied |
| Cc1nc2ccccc2c(=O)n1/N=C/N(C)C | Satisfied |
| O=c1c2ccccc2nc(SCc2ccc(Cl)cc2)n1-c1ccccc1 [Compound 15a] | Satisfied |

Would you kindly verify if IC50 of Cc1nc2ccc(Br)cc2c(=O)n1/N=C/c1ccc(-c2ccccc2)cc1 is strictly less than 50 µM?
Satisfied

Item Cc1ccc2nc(SCc3ccc(Cl)cc3)n(-c3ccccc3)c(=O)c2c1 [Compound 15b] : IC50 beneath 50 µM, strictly?
Satisfied

Is IC50 of Cc1nc2ccc(Br)cc2c(=O)n1/N=C/c1ccc2ccccc2c1 strictly below 50 µM?
Satisfied

Consider Cc1cccc(C)c1NC(=O)CSc1nc2ccccc2c(=O)n1-c1ccccc1 [Compound 15c] . Does its IC50 lie strictly below 50 µM?
Satisfied

is_below(IC50, 50 µM) for Cc1ccc2nc(SCC(=O)Nc3cccc(C)c3C)n(-c3ccccc3)c(=O)c2c1 [Compound 15f] ?
Satisfied

Does the reported IC50 of Cc1nc2ccccc2c(=O)n1NC(=O)OCC(C)C stay below 50 µM?
Satisfied

Given the entry Cc1nc2ccc(Br)cc2c(=O)n1/N=C/c1ccc(C#N)cc1 , would its reported IC50 be below 50 µM?
Not satisfied

Is IC50 of COc1cccc(/C=N/n2c(C)nc3ccc(Br)cc3c2=O)c1[N+](=O)[O-] strictly below 50 µM?
Not satisfied

Is the reported IC50 for COc1cc(-n2c(C)nc3ccc(F)cc3c2=O)cc(OC)c1OC strictly below 50 µM?
Satisfied

* * *

targetUnderTest: Naja mossambica mossambica sPLA2 (NmPLA2)
methodSummary: In vitro antiphospholipase activity
Assay type: biochemical
assayConditions: 20 min preincubation, lecithin substrate, pH 7.6
measuredQuantity: mean IC50 against NmPLA2

Examples with their reported mean IC50 against NmPLA2 follow.
| smilesString | targetUnderTest | measuredQuantity | reported |
| --- | --- | --- | --- |
| Cc1nc2ccccc2c(=O)n1/N=C/c1ccc(-c2ccccn2)cc1 | Naja mossambica mossambica sPLA2 (NmPLA2) | mean IC50 against NmPLA2 | 7.60 ± 0.85 µg/mL |
| Cc1nc2ccccc2c(=O)n1/N=C/N(C)C | Naja mossambica mossambica sPLA2 (NmPLA2) | mean IC50 against NmPLA2 | 35.00 ± 2.83 µg/mL |

Moving on to another molecule below.
Look up mean IC50 against NmPLA2: Cc1nc2ccc(Br)cc2c(=O)n1/N=C/c1ccc(C#N)cc1
22.90 ± 1.27 µg/mL

* * *

targetUnderTest: collagenase
methodSummary: In vitro antiprotease activity
Format: biochemical
assayConditions: 15 min preincubation
measuredQuantity: mean IC50 against Collagenase (µg/mL)
Give bare numbers, in µg/mL.

Record excerpt, results attached:
| compound | targetUnderTest | readoutUnits | reported |
| --- | --- | --- | --- |
| Cc1ccc2nc(SCc3ccc(Cl)cc3)n(-c3ccccc3)c(=O)c2c1 [Compound 15b] | collagenase | µg/mL | 26.50 |
| COc1cc(-n2c(C)nc3ccc(F)cc3c2=O)cc(OC)c1OC | collagenase | µg/mL | 18.00 |
| Cc1ccc2nc(SCC(=O)Nc3c(C)cccc3C)n(-c3ccccc3)c(=O)c2c1 [Compound 15d] | collagenase | µg/mL | 10.50 |
| Cc1cccc(NC(=O)CSc2nc3ccccc3c(=O)n2-c2ccccc2)c1C [Compound 15e] | collagenase | µg/mL | 4.50 |
| Cc1cccc(C)c1NC(=O)CSc1nc2ccccc2c(=O)n1-c1ccccc1 [Compound 15c] | collagenase | µg/mL | 18.00 |

Would you mind giving mean IC50 against Collagenase for every compound in the list below?
1. Cc1nc2ccccc2c(=O)n1/N=C/c1ccc2ccccc2c1
2. O=c1c2ccccc2nc(SCc2ccc(Cl)cc2)n1-c1ccccc1 [Compound 15a]

[31.00, 28.00]

What does the record list as mean IC50 against Collagenase for Cc1nc2ccccc2c(=O)n1/N=C/c1ccc(-c2ccccc2)cc1 ?
15.25

* * *

So I've got a bunch of compounds here, and I need their log10 of IC50 values.
targetUnderTest: human group IIA (hG-IIA) sPLA2 (Homo sapiens, UniProt P14555)
Sequence (P14555 21-144): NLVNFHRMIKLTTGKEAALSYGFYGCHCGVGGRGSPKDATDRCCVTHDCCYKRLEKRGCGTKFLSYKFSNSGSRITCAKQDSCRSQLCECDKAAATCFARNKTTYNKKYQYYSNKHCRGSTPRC
Answers are given as log10 of IC50 in µM.

For orientation, consider the following solved cases.
| compound | log10 of IC50 |
| --- | --- |
| COc1cc(-n2c(C)nc3ccc(Cl)cc3c2=O)cc(OC)c1OC [Compound 5c] | 1.76 |
| COc1cccc(/C=N/n2c(C)nc3ccc(Br)cc3c2=O)c1[N+](=O)[O-] [Compound 8f] | 1.65 |
| Cc1nc2ccc(Br)cc2c(=O)n1/N=C/c1ccc(C#N)cc1 [Compound 8h] | 2.08 |
| Cc1nc2ccccc2c(=O)n1/N=C/c1ccc2ccccc2c1 [Compound 8a] | 2.16 |
| Cc1ccc2nc(SCC(=O)Nc3cccc(C)c3C)n(-c3ccccc3)c(=O)c2c1 [Compound 15f] | 1.96 |

Each of the following entries comes with a recorded value; kindly state log10 of IC50 for each.
1. Cc1cccc(NC(=O)CSc2nc3ccccc3c(=O)n2-c2ccccc2)c1C [Compound 15e]
2. Cc1ccc2nc(SCC(=O)Nc3c(C)cccc3C)n(-c3ccccc3)c(=O)c2c1 [Compound 15d]
3. Cc1nc2ccccc2c(=O)n1/N=C/c1ccc(C#N)cc1 [Compound 8g]
4. Cc1nc2ccc(Br)cc2c(=O)n1/N=C/c1ccc(-c2ccccc2)cc1 [Compound 8j]
5. Cc1nc2ccc(Br)cc2c(=O)n1/N=C/c1ccc(-c2ccccn2)cc1 [Compound 8d]
6. Cc1nc2ccc(Br)cc2c(=O)n1/N=C/c1ccc2ccccc2c1 [Compound 8b]

1. 1.54
2. 1.22
3. 1.98
4. 1.31
5. 1.14
6. 1.63

For each entry beneath this line, provide reported log10 of IC50.
1. O=c1c2ccccc2nc(SCc2ccc(Cl)cc2)n1-c1ccccc1 [Compound 15a]
2. COc1cc(-n2c(C)nc3ccc(F)cc3c2=O)cc(OC)c1OC [Compound 5b]
3. COc1cc(-n2c(C)nc3ccccc3c2=O)cc(OC)c1OC [Compound 5a]
4. Cc1nc2ccccc2c(=O)n1/N=C/c1ccc(-c2ccccn2)cc1 [Compound 8c]
5. Cc1cccc(C)c1NC(=O)CSc1nc2ccccc2c(=O)n1-c1ccccc1 [Compound 15c]

1.36
1.78
1.33
1.35
1.98
